Every entry's value here was drawn from PubChem BioAssay (NCI).

Field: TGI. Provide a value for each of the compounds that follow.
# Tested on: SF-539 CNS
# Method Description: NCI tumour cell line growth inhibition, 48 h

Request: Dear colleague, I am looking for the recorded TGI of the following compound: NCC1OC(OC2C(N)CC(N)C(O)C2OC2OC(CO)C(O)C2O)C(N)C(O)C1O (stereo not given)
Response: > 100 µM

Request: Next entry: O=C(O)C1C2OC(C(Br)C2Br)C1C(=O)O (stereo not given)
Response: > 100 µM

Request: How about C=C(CCC(=O)N(CCc1c[nH]c2ccccc12)C(=O)c1ccccc1CSCC)C(=O)OC ?
Response: > 100 µM

Request: Entry to check: O=c1ccc(=O)c2c1c1[nH]c3ccccc3c1c1c(=O)c3ccccc3c(=O)c21
Response: > 10 µM

Request: // same read-out, input: COc1cc2ccc(C(C)NCC#N)cc2cc1OC (stereo not given)
Response: > 100 µM

Request: Also need Cc1c(C)c2c(c(N)c1C#N)C(=O)N(NC(=S)Nc1ccccc1)C2=O , thanks.
Response: > 100 µM

Request: Queued: COc1cc2c(cc1OCCN1CCN(CCOc3cc4c(cc3OC)C(=O)N3CCC[C@H]3C=N4)CC1)N=C[C@@H]1CCCN1C2=O
Response: > 64.3 µM

Request: Please give the result for Clc1ccc(-c2nn3c(COc4ccc(OCc5nnc6sc(-c7ccc(Cl)cc7)nn56)c(Cl)c4)nnc3s2)cc1 too.
Response: > 100 µM

Request: Likewise for CCOC(=O)C(=O)Nc1nc2ccc(OC)cc2s1 ?
Response: > 100 µM

Request: Note, next up: CN(C)CC(=O)N1CCc2c([nH]c3ccccc23)C1c1cccnc1 (stereo not given)
Response: > 100 µM
